Could you please report measured pEC50 for the items listed next?
- System: Pristionchus pacificus
- run.description: Pristionchus pacificus motor disruption dose-response on solid media, 1 h
- protocol.conditions: Pristionchus pacificus, 1 h, read-out: P. pacificus motor disruption EC50
Answers are plain numbers, as −log10 of the molar value.

compound: Cc1ccc(N2CCN(C3CCC(C)C3)CC2)cc1 (stereo not drawn) [Nemacol-41]
tested.on: Pristionchus pacificus
pEC50: 4.97
//
compound: O=[N+]([O-])c1ccc(N2CCN(C3CCCCCCC3)CC2)cc1 [Nemacol-21]
tested.on: Pristionchus pacificus
pEC50: 4.22
//
compound: O=[N+]([O-])c1ccc(N2CCN(CC3CC=CCC3)CC2)cc1 (stereo not drawn) [Nemacol-4]
tested.on: Pristionchus pacificus
pEC50: 4.72
//
compound: FC(F)(F)c1cccc(N2CCN(CC3CC4C=CC3C4)CC2)c1 (stereo not drawn) [Nemacol-47]
tested.on: Pristionchus pacificus
pEC50: 5.54

Hey, quick one: what's pEC50 for each of these?
1. O=[N+]([O-])c1ccc(N2CCN(CC3CCCCC3)CC2)cc1 [Nemacol-1]
2. N#Cc1ccc(N2CCN(CC3CCCC3)CC2)cc1 [Nemacol-27]
3. c1ccc(N2CCN(C3CCCCCCC3)CC2)cc1 [Nemacol-54]
4. Clc1ccc(N2CCN(CC3CC4C=CC3C4)CC2)cc1 (stereo not drawn) [Nemacol-46]

1: 4.85; 2: 4.79; 3: 4.28; 4: 5.15

For each of the compounds below, state pEC50.
1. CC1CCC(N2CCN(c3ccc([N+](=O)[O-])cc3)CC2)CC1 (stereo not drawn) [Nemacol-5]
2. c1ccc(N2CCN(CC3CCCC3)CC2)cc1 [Nemacol-62]
3. Fc1ccc(N2CCN(C3CCCCCC3)CC2)cc1 [Nemacol-51]
4. O=[N+]([O-])c1ccc(N2CCN(C3CCCC3)CC2)cc1 [Nemacol-61]
5. CC1CCC(N2CCN(c3ccc(F)cc3)CC2)CC1 (stereo not drawn) [Nemacol-53]
6. Fc1ccc(N2CCN(CC3CCCCC3)CC2)cc1 [Nemacol-9]
7. FC(F)(F)c1cccc(N2CCN(C3CCCCCC3)CC2)c1 [Nemacol-52]

1: 4.78; 2: 4.45; 3: 4.88; 4: 4.51; 5: 4.89; 6: 4.70; 7: 4.66

====

- Test system: Pristionchus pacificus
- run.description: Pristionchus pacificus motor disruption dose-response on solid media, 1 h
- protocol.conditions: conc 15; any phenotype (coiled, jerky-Unc or paralyzed) at one hour; mean of three biological replicates
endpoint.name: mean % any phene (%)
Give bare numbers, in %.

Batch lookup, mean % any phene per entry.
1. c1cc(N2CCN(CC3CCC3)CC2)ccn1
2. c1ccc(N2CCN(C3CCCCCCC3)CC2)cc1
3. c1ccc(N2CCN(CC3CCCC3)CC2)cc1
4. Fc1ccccc1N1CCN(C2CCCCCC2)CC1

0
0
3.333
0.8333

====

- Test system: Pristionchus pacificus
- run.description: Pristionchus pacificus motor disruption dose-response on solid media, 1 h
- protocol.conditions: conc 15; count of 20 animals per trial, one hour
Kindly supply the reported rep 1 no phene values for the records listed here.

compound: CC1CCC(N2CCN(c3ccc(F)cc3)CC2)CC1 (centres unmarked) [Nemacol-53]
endpoint.name: rep 1 no phene
observed.measurement: 7

Can you give me rep 1 no phene for all of these, one by one?
1. c1ccc(N2CCN(C3CCCCCCC3)CC2)cc1 [Nemacol-54]
2. O=[N+]([O-])c1ccc(N2CCN(CC3CCCCC3)CC2)cc1 [Nemacol-1]
3. FC(F)(F)c1cccc(N2CCN(CC3CCCC3)CC2)c1 [Nemacol-63]
4. c1cc(N2CCN(CC3CCC3)CC2)ccn1 [Nemacol-60]

[20, 6, 20, 20]
